ASSAY INFO: Cytotoxicity against human SH-SY5Y cells assessed as effect on cell viability at 50 uM measured after 24 hrs by MTT assay relative to control
Assay type: toxicity, cell-based
MEASUREMENT PARAMETERS: read-out: Activity
Catalogue of viability at 24 h, 50 µM readings, one per entry.
ASSAY METRIC: viability at 24 h, 50 µM (%)

chemical_smiles=CC(=O)c1ccc(N(Cc2cn(-c3ccc(C(F)(F)F)cc3)nn2)S(=O)(=O)c2ccccc2)cc1 measured=108
chemical_smiles=Cc1ccc(-n2cc(CN(c3ccc(C(O)(C(F)(F)F)C(F)(F)F)cc3)S(=O)(=O)c3ccccc3)nn2)cc1 measured=48.9
chemical_smiles=O=[N+]([O-])c1ccc(-n2cc(CN(c3ccc(C(O)(C(F)(F)F)C(F)(F)F)cc3)S(=O)(=O)c3ccccc3)nn2)cc1 measured=39.6
chemical_smiles=COc1ccc(-n2cc(CN(c3ccc(C(C)=O)cc3)S(=O)(=O)c3ccccc3)nn2)cc1 measured=88.5
chemical_smiles=CC(=O)c1ccc(N(Cc2cn(-c3ccc(C(C)=O)cc3)nn2)S(=O)(=O)c2ccccc2)cc1 measured=97.3
chemical_smiles=CC(=O)c1ccc(N(Cc2cn(-c3ccc(O)c([N+](=O)[O-])c3)nn2)S(=O)(=O)c2ccccc2)cc1 measured=71.3
chemical_smiles=CC(=O)c1ccc(N(Cc2cn(-c3ccccc3F)nn2)S(=O)(=O)c2ccccc2)cc1 measured=93.6
chemical_smiles=O=S(=O)(c1ccccc1)N(Cc1cn(-c2ccc(C(F)(F)F)cc2)nn1)c1ccc(C(O)(C(F)(F)F)C(F)(F)F)cc1 measured=49.8
chemical_smiles=CC(=O)c1ccc(N(Cc2cn(-c3cccc(C(C)=O)c3)nn2)S(=O)(=O)c2ccccc2)cc1 measured=78.7
chemical_smiles=CC(=O)c1ccc(N(Cc2cn(-c3ccccc3C(F)(F)F)nn2)S(=O)(=O)c2ccccc2)cc1 measured=83.9
chemical_smiles=O=S(=O)(c1ccccc1)N(Cc1cn(-c2ccc(OC(F)(F)F)cc2)nn1)c1ccc(C(O)(C(F)(F)F)C(F)(F)F)cc1 measured=43.5
chemical_smiles=CCOC(=O)c1ccc(-n2cc(CN(c3ccc(C(O)(C(F)(F)F)C(F)(F)F)cc3)S(=O)(=O)c3ccccc3)nn2)cc1 measured=73.8
chemical_smiles=O=S(=O)(c1ccccc1)N(CC(F)(F)F)c1ccc(C(O)(C(F)(F)F)C(F)(F)F)cc1 measured=94.8
chemical_smiles=Cc1ccc(-n2cc(CN(c3ccc(C(O)(C(F)(F)F)C(F)(F)F)cc3)S(=O)(=O)c3ccccc3)nn2)cc1C measured=68.7
chemical_smiles=C#CCN(c1ccc(C(O)(C(F)(F)F)C(F)(F)F)cc1)S(=O)(=O)c1ccccc1 measured=112
chemical_smiles=C#CCOC(c1ccc(N(CC#C)S(=O)(=O)c2ccccc2)cc1)(C(F)(F)F)C(F)(F)F measured=88.7

====

ASSAY INFO: Cytotoxicity against human SH-SY5Y cells assessed as effect on cell viability at 50 uM measured after 24 hrs by MTT assay relative to control
Format: toxicity, cell-based
MEASUREMENT PARAMETERS: read-out: Activity
ASSAY METRIC: viability at 24 h, 50 µM (%)

chemical_smiles=CC(=O)c1ccc(N(Cc2cn(-c3cccc([N+](=O)[O-])c3)nn2)S(=O)(=O)c2ccccc2)cc1 unit_spec=% measured=74.2
chemical_smiles=CC(=O)c1ccc(N(Cc2cn(-c3ccccc3)nn2)S(=O)(=O)c2ccccc2)cc1 unit_spec=% measured=114
chemical_smiles=O=S(=O)(c1ccccc1)N(Cc1cn(-c2ccccc2F)nn1)c1ccc(C(O)(C(F)(F)F)C(F)(F)F)cc1 unit_spec=% measured=129
chemical_smiles=CC(=O)c1ccc(N(Cc2cn(-c3ccc(C(O)(C(F)(F)F)C(F)(F)F)cc3)nn2)S(=O)(=O)c2ccccc2)cc1 unit_spec=% measured=123
chemical_smiles=CC(=O)c1ccc(N(Cc2cn(-c3ccc(F)cc3)nn2)S(=O)(=O)c2ccccc2)cc1 unit_spec=% measured=90.4
chemical_smiles=CC(=O)c1ccc(N(Cc2ccccc2)S(=O)(=O)c2ccccc2)cc1 unit_spec=% measured=112
chemical_smiles=CC(=O)c1ccc(N(Cc2cn(-c3ccc(C)cc3)nn2)S(=O)(=O)c2ccccc2)cc1 unit_spec=% measured=85.8
chemical_smiles=CC(=O)c1ccc(N(Cc2cn(-c3ccc(OC(F)(F)F)cc3)nn2)S(=O)(=O)c2ccccc2)cc1 unit_spec=% measured=64.4
